- System: T. cruzi-infected H9C2 cardiomyocytes, high-content imaging
- ASSAY_INFO: intracellular T. cruzi amastigote inhibition, imaging, H9C2 host cardiomyocytes, host toxicity (AID 1159565);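 also: infected cells incubated 72 h after plating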
- CONDITION_SET: measured here: H9C2 host cell toxicity
pIC50: −log10 of the molar value.
Answer each item with its documented pIC50.

[in] Any idea what pIC50 was measured for CS(=O)(=O)c1ccc(Nc2nccc(-c3cnn4ncccc34)n2)cc1 ?
[out] 5.30

[in] Again, but for COc1cc(Cl)c(C)cc1NC(=O)c1ccc([N+](=O)[O-])s1
[out] 5.60

[in] Subsequent entry: CCOc1ccccc1C(=O)Nc1nnc(-c2ccc3c(c2)OCO3)s1
[out] < 4.30

[in] And CC(Cn1ccnc1)NC(=O)COc1ccc(Cl)c(Cl)c1 (stereo unspecified) ?
[out] < 4.30

[in] Ok, now O=C(N1CCc2ccccc2CC1)C1(C(=O)N2CCC(n3c(=O)[nH]c4ncccc43)CC2)CC1
[out] < 4.30

[in] Let us now turn to Cc1cc(NC(=O)c2ccc([N+](=O)[O-])s2)ccc1Br
[out] 5.60

[in] Also COc1ccc(-c2csc(NC(=O)c3ccc([N+](=O)[O-])s3)n2)cc1OC ?
[out] 5.20

[in] Moving on to the next compound: COc1ccc(NS(=O)(=O)c2cc(-c3cc(C)[nH]n3)ccc2C)cc1OC
[out] < 4.30

[in] Please answer likewise for Cc1nnnn1-c1cccc(C(=O)N2CCC[C@@]3(C)c4ncncc4CCC23)c1 (stereo partly specified)
[out] < 4.30

[in] Entry Cc1cc2cncn2c(C2CCCCN2C(=O)c2cccs2)n1 (stereo unspecified) please
[out] < 4.30

[in] Another compound to look at: O=C(CSc1nnc(-c2ccc3c(c2)OCO3)o1)N(Cc1ccco1)CC(F)(F)F
[out] < 4.30

###

- Test system: T. cruzi-infected H9C2 cardiomyocytes, high-content imaging
- ASSAY_INFO: intracellular T. cruzi amastigote inhibition, imaging, H9C2 host cardiomyocytes, host toxicity (AID 1159565);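 also: infected cells incubated 72 h after plating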
- CONDITION_SET: measured here: H9C2 host cell toxicity
pIC50: −log10 of the molar value.
RECORDED_ENDPOINT: pIC50

[in] Find the recorded pIC50 belonging to O=C(CCCNC(=O)c1ccc(Cl)cc1)Nc1nc(-c2ccccn2)cs1 and report it.
[out] 4.60

[in] Let us now turn to O=C(c1ccc(Cl)cc1)c1ccc(OC(=O)N2CCOCC2)cc1
[out] < 4.30

[in] // same read-out, input: O=C(c1ccccc1)N1CCC(C(=O)N2CCC(Oc3ccccc3Cl)CC2)CC1
[out] < 4.30

[in] // same read-out, input: O=C(CN(Cc1ccccn1)Cc1ccccn1)NCc1csc(-c2cccs2)n1
[out] < 4.30

[in] And the next one, O=C(Nc1nc(-c2ccccn2)cs1)c1ccc(S(=O)(=O)N2CCCCC2)cc1 ?
[out] 5.60

[in] Input CCOC(=O)c1noc(N)c1-c1ccccc1
[out] < 4.30

[in] # repeat for CCN(CC)S(=O)(=O)c1ccc(C(=O)Nc2cc(C)nn2-c2nc(C)c(C)c(=O)[nH]2)cc1
[out] < 4.30

[in] Now consider O=C(NCC1CCCCC1)c1cc(=O)c2ccccc2o1 and answer again.
[out] 4.49

[in] Also check CC(C)(C)C(Cn1ccnc1)NC(=O)c1ccc2nc(C3CC3)oc2c1 (stereo unspecified)
[out] < 4.30

[in] // next record NC(=O)c1cc(NC(=O)c2ccccc2COc2ccccc2)ccc1Cl
[out] < 4.30

[in] One more compound: O=C(NCc1ccc(Cl)cc1)C1CN(C(=O)c2ccc(F)cc2)CCS1 (stereo unspecified)
[out] < 4.30

[in] And for CC(C)Nc1nccc(-c2c(-c3ccc(F)cc3)ncn2C2CCOCC2)n1 ?
[out] < 4.30

[in] Now try CCCCn1c(=O)c2c(N)onc2n(CCCC)c1=O .
[out] 4.60

[in] Same question for Cc1sc(C)c(C(F)(F)F)c1CNCCCNc1cc(=O)c2ccccc2[nH]1 please.
[out] < 4.30

[in] Another compound to look at: Cc1nn(-c2nc(N)nc(-c3ccccn3)n2)c(C)c1Cc1ccccc1
[out] 4.70

[in] Same question for CCOc1cc(NCCCN2CCN(C)CC2)c2ncccc2c1 please.
[out] 4.49

[in] Same question, CCc1cccc(-n2nc(OCC(=O)NC3CCCC3)c3cccnc32)c1 this time
[out] < 4.30

[in] Follow-up item: CNc1cncc(C2CCCN2C(=O)Cc2coc3cc(C)ccc23)n1 (stereo unspecified)
[out] < 4.30

[in] Continue with Cc1nc(C(=O)Nc2ccc3c(c2)OCO3)nn1-c1ccc(F)cc1
[out] < 4.30

[in] Let us now turn to CNc1nc(C)nc(N2CCc3cc(C(=O)NCc4ccc(-c5nccn5C)cc4Cl)ccc32)n1
[out] 4.30

[in] Same again, this time with O=C(CN(Cc1ccccn1)Cc1ccccn1)NC1Cc2ccccc2C1
[out] < 4.10

[in] Here is the next compound: O=C(CCCn1cnc([N+](=O)[O-])n1)Nc1cccc(Cl)c1
[out] < 4.30

[in] Another compound to check: O=C(c1cccc(Cl)c1Cl)N1CCn2c1nc(-c1ccncc1)cc2=O
[out] < 4.30

[in] Repeat with COc1ccc(S(=O)(=O)Nc2ccc(C(=O)Nc3nc(-c4ccccn4)cs3)cc2)cc1
[out] 5.20

[in] Please do the same for O=C(Nc1ccc(C(=O)N2CCCC2c2ccc3c(c2)OCCCO3)cc1)c1ccco1 (stereo unspecified) as well.
[out] < 4.30

[in] Likewise for Cc1ncsc1CNc1cnc(-c2ccc3c(c2)OCCO3)c(-c2cnn(C)c2)c1 ?
[out] < 4.30
